Where these numbers come from: the supplement of paper PMC7411054

System: A549-TP53BP1-CLTA
Assay: phenotypically active (imaging signature differs from DMSO and reproducible) at any of 0.3-9 uM (binary (1 = active, 0 = inactive)); higher = active
Conditions: treatment time: 24 h
Valid outcomes are listed here; reply with one: 1 for active, -1 for inactive

For orientation, consider the following solved cases.
Compound	Class Label
CCN1CCN(C(c2cccnc2)c2cc(Cl)c3cccnc3c2O)CC1 (centres undefined)	1
COc1cc2c(cc1NS(=O)(=O)c1ccc(Br)cc1C)n(C)c(=O)n2C	1
CCCCCCCCCCCCC/C=C/[C@H](O)[C@H](N)CO [D-erythro-Sphingosine (synthetic)]	-1
COc1ccc2cc(CCC(C)=O)ccc2c1	-1

[ask] What did the test return for CCOC(=O)C(C)(C)Oc1ccc(Cl)cc1 [Clofibrate] ?
[reply] -1

[ask] What did the test return for `CCOC(=O)[C@H](CCc1ccccc1)N[C@@H](C)C(=O)N1[C@H](C(=O)O)C[C@@H]2CCC[C@@H]21` ?
[reply] -1

[ask] What did the test return for `CC[N+](C)(CC)CCOC(=O)C1c2ccccc2Oc2ccccc21` ?
[reply] -1

[ask] What did the test return for `CC[C@H](Nc1ncnc2[nH]cnc12)c1nc2cccc(F)c2c(=O)n1-c1ccccc1` ?
[reply] -1

[ask] What did the test return for `Oc1cc(O)cc(/C=C/c2ccc(O)c(O)c2)c1` ?
[reply] -1

---

Test system: WPMY1-GM130-SQSTM1
Experiment: phenotypically active (imaging signature differs from DMSO and reproducible) at any of 0.3-9 uM (binary (1 = active, 0 = inactive)); higher = active
Details: treatment time: 24 h
Structures can show the parent of a compound that is named as a salt.
Valid outcomes are listed here; reply with one: True for active, False for inactive

[ask] What did the test return for CCOc1cc(CC(=O)N[C@@H](CC(C)C)c2ccccc2N2CCCCC2)ccc1C(=O)O [repaglinide] ?
[reply] False

[ask] What did the test return for Cc1cc(Nc2cc(C)c(C#N)c(NC(C)CCCC(C)(C)O)n2)n[nH]1 (stereo not drawn) [TC-A 2317 hydrochloride] ?
[reply] True

[ask] What did the test return for `COc1cc2c(N3CCN(C(=O)Nc4ccc(OC(C)C)cc4)CC3)ncnc2cc1OCCCN1CCCCC1` ?
[reply] True

[ask] What did the test return for `NC(=O)C(c1ccccc1)(c1ccccc1)[C@@H]1CCN(CCc2ccc3c(c2)CCO3)C1` ?
[reply] True

[ask] What did the test return for `O=C1CCc2ccc(OCCCCN3CCN(c4cccc(Cl)c4Cl)CC3)cc2N1` ?
[reply] True

[ask] What did the test return for `COc1cc(N2CCC(N)CC2)ccc1Nc1ncc(Cl)c(-c2c[nH]c3ccccc23)n1` ?
[reply] True

[ask] What did the test return for `CN(C)c1nc(N(C)C)nc(N(C)C)n1` ?
[reply] False

[ask] What did the test return for CC(C)CCN1c2nc(Nc3cc(F)c(O)c(F)c3)ncc2N(C)C(=O)C1C (stereo not drawn) ?
[reply] True

[ask] What did the test return for `O=C(NOCC1CC1)c1ccc(F)c(F)c1Nc1ccc(I)cc1Cl` ?
[reply] False

[ask] What did the test return for CC(C)[C@H](N)C(=O)OCC(CO)OCn1cnc2c(=O)[nH]c(N)nc21 (stereo partly drawn) ?
[reply] True

[ask] What did the test return for COCCOC(=O)C1=C(C)NC(C)=C(C(=O)OC(C)C)C1c1cccc([N+](=O)[O-])c1 (stereo not drawn) ?
[reply] False

[ask] What did the test return for O=C(O)[C@@H]1[C@H]2C[C@H]3c4[nH]c5ccccc5c4CCN3C[C@@H]2CC[C@@H]1O [Yohimbinic acid monohydrate] ?
[reply] True

[ask] What did the test return for `CC1=C(/C=C/C(C)=C/C=C/C(C)=C/C(=O)O)C(C)(C)CCC1` ?
[reply] False

[ask] What did the test return for `NS(=O)(=O)c1nn2cc(-c3ccccc3)nc2s1` ?
[reply] True

[ask] What did the test return for `Cc1c(CN2CCN(C(=O)[C@H](C)O)CC2)sc2c(N3CCOCC3)nc(-c3cnc(N)nc3)nc12` ?
[reply] True

[ask] What did the test return for NC1=NCC2c3ccccc3Cc3ccccc3N12 (stereo not drawn) [epinastine] ?
[reply] False

[ask] What did the test return for `Nc1ccn([C@@H]2O[C@H](CO)[C@@H](O)C2(F)F)c(=O)n1` ?
[reply] True

[ask] What did the test return for `CCOc1ccccc1OCCN[C@H](C)Cc1ccc(OC)c(S(N)(=O)=O)c1` ?
[reply] False
